Experimental Target: human CD33 V332A (human, UniProt P20138 18-364)
Sequence (P20138 18-364 V332A limits assumed): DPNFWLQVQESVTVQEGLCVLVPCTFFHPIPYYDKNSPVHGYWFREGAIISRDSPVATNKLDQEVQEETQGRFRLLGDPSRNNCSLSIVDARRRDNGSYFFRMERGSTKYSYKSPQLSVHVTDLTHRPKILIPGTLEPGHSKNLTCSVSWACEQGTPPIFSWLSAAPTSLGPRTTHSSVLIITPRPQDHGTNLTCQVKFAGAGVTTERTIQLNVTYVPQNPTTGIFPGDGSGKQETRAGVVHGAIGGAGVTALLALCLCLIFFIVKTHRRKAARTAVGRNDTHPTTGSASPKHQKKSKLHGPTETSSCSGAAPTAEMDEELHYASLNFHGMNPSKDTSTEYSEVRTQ
Experimental Details: flow cytometry, alanine scan

Binder	Mean % WT Binding
Refmab #2 (antibody, V domains shown, The alanine scan used IgG or Fab) VH: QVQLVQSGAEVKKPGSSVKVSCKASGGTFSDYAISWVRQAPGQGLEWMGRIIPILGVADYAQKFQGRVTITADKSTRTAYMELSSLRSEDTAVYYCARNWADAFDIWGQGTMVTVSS VL: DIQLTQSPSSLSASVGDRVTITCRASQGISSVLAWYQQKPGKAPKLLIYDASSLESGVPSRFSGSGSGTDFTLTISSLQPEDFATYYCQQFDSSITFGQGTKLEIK	91.6 % of WT
Refmab #1 (antibody, V domains shown, The alanine scan used IgG or Fab; also called hP67.6) VH: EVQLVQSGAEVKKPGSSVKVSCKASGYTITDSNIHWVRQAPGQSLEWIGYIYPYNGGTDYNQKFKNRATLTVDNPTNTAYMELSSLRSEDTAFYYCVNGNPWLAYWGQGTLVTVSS VL: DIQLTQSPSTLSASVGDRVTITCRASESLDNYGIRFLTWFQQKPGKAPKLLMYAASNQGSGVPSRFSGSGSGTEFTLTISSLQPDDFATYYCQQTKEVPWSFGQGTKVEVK	107 % of WT
Refmab #3 (antibody, V domains shown, The alanine scan used IgG or Fab) VH: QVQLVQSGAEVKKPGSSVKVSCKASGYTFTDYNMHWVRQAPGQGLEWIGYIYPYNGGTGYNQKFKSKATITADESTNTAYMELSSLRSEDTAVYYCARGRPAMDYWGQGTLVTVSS VL: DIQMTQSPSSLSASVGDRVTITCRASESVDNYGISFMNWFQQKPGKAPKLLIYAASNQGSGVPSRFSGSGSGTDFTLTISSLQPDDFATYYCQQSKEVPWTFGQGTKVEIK	89.8 % of WT
Refmab #4 (antibody, V domains shown, The alanine scan used IgG or Fab) VH: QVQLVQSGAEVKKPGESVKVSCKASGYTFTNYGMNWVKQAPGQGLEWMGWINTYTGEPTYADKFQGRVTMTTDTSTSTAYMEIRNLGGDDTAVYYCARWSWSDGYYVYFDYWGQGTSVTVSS VL: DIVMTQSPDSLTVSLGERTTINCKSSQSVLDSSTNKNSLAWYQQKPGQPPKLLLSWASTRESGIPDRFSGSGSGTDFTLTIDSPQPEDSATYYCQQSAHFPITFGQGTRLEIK	93.4 % of WT
